Settings: 298.15 K; 101.33 kPa; Liquid
Exercise: for every item that follows, state its recorded viscosity.
Provide the reading as a plain figure in mPa·s.

Qu. Name the reported viscosity value associated with the compound `CC(C)CO`
Ans. 3.332

Qu. And what about the compound CCC(C)O (stereo not given) ?
Ans. 2.998

Qu. Then `O=C1CCCN1` ?
Ans. 13.07

Qu. Please do the same for `CCCCO` as well.
Ans. 2.572

Qu. Try `CC(C)(C)O` next.
Ans. 4.436

====

Settings: 303.15 K; 101.33 kPa; Liquid
Quantity Kind: viscosity (mPa·s)
Write it as a number; the unit mPa·s goes unstated.

Qu. Which measured viscosity value corresponds to `O=C1CCCN1` ?
Ans. 10.69

Qu. For `CCCCO` then?
Ans. 2.275

Qu. Same read-out for `CC(C)CO` ?
Ans. 2.884

Qu. Moving on to the next compound: `CC(C)(C)O`
Ans. 3.378

Qu. Next compound: CCC(C)O (stereo not given)
Ans. 2.489
